Tested on: APEH
Assay: serine hydrolase off-target inhibition in mouse brain, late-stage follow-up, selectivity assay for DAGLb inhibitor project, biochemical, gel-based competitive ABPP, mouse brain membrane, set 1 (AID 602311)
Settings: gel-based competitive ABPP fluorescence, at 10 µM, hits give high values
metric.name: inhibition (%)

Guide cases for inhibition, answers given:
Entry O=C(N1CCCCC1Cc1ccccc1)n1cc(-c2ccccc2-c2ccccc2)nn1 (stereo unspecified) , APEH data, inhibition value: 0

Readout inhibition for O=C(N1CCCCC1Cc1ccccc1)n1cc(-c2ccc(-c3ccc(OC(F)(F)F)cc3)cc2)nn1 (stereo unspecified) , test system APEH, was 0

// compound O=C(N1CCCCC1Cc1ccccc1)n1cc(-c2ccc(-c3ccccc3C(F)(F)F)cc2)nn1 (stereo unspecified) , assay APEH, inhibition value: 0

Record for O=C(N1CCCCC1Cc1ccccc1)n1cc(-c2cccc(-c3ccccc3)c2)nn1 (stereo unspecified) under target or system APEH: inhibition reported as 0

P: CC(C)CN(CCc1ccccc1)C(=O)n1cc(-c2ccc(OC(F)(F)F)cc2)nn1
Q: O=C(N1CCCCC1c1ccccc1)n1cc(C(O)(c2ccccc2)c2ccccc2)nn1 (stereo unspecified)
Query: I'm curious, which of these has a smaller inhibition number: P or Q ? When you have decided, please share the label of that item.
Reply: P
(P: 0%, Q: 95%)

###

Target: Monoacylglycerol lipase ABHD6 (Mus musculus) (UniProt Q8R2Y0)
Sequence (Q8R2Y0 whole entry, looked up): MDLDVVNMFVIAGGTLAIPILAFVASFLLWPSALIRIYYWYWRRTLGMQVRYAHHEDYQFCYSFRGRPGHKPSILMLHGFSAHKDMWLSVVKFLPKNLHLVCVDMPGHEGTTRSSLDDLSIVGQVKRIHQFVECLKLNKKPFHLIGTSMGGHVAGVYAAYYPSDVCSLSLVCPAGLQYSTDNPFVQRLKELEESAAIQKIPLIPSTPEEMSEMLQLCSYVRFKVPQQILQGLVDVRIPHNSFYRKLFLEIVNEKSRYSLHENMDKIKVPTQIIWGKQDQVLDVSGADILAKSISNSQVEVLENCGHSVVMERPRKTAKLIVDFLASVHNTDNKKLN
Assay: serine hydrolase off-target inhibition in mouse brain, late-stage follow-up, selectivity assay for DAGLb inhibitor project, biochemical, gel-based competitive ABPP, mouse brain membrane, set 1 (AID 602311)
Conditions: gel-based competitive ABPP fluorescence, at 10 µM, hits give high values
metric.name: inhibition (%)

Entry O=C(N1CCCCC1Cc1ccccc1)n1cc(-c2ccc(-c3ccccc3Cl)cc2)nn1 (centres undefined) , Monoacylglycerol lipase ABHD6 (Mus musculus) (UniProt Q8R2Y0) data, inhibition value: 95

Tested system Monoacylglycerol lipase ABHD6 (Mus musculus) (UniProt Q8R2Y0); inhibition recorded for O=C(N1CCCCC1Cc1ccccc1)n1ncc(-c2ccc(OC(F)(F)F)cc2)n1 (centres undefined) was 85

Given the compound O=C(N1CCCCC1Cc1ccccc1)n1cc(-c2ccc(-c3ccc4c(c3)OCO4)cc2)nn1 (centres undefined) and test system Monoacylglycerol lipase ABHD6 (Mus musculus) (UniProt Q8R2Y0), the measured inhibition is 90

The measured inhibition that O=C(N1CCCCC1Cc1ccccc1)n1cc(-c2cccc(-c3ccccc3)c2)nn1 (centres undefined) showed for Monoacylglycerol lipase ABHD6 (Mus musculus) (UniProt Q8R2Y0) is 85

Readout inhibition for CC(C)CN(CCc1ccccc1)C(=O)n1cc(-c2ccc(OC(F)(F)F)cc2)nn1 , test system Monoacylglycerol lipase ABHD6 (Mus musculus) (UniProt Q8R2Y0), was 90

Assay Monoacylglycerol lipase ABHD6 (Mus musculus) (UniProt Q8R2Y0), sample O=C(N1CCCCC1Cc1ccccc1)n1cc(-c2ccc(-c3cccc(CO)c3)cc2)nn1 (centres undefined) , inhibition read: 90

Value (inhibition, Monoacylglycerol lipase ABHD6 (Mus musculus) (UniProt Q8R2Y0)) for record O=C(N1CCCCC1Cc1ccccc1)n1cc(-c2ccc(OC(F)(F)F)cc2)nn1 (centres undefined) = 90

Observed inhibition on Monoacylglycerol lipase ABHD6 (Mus musculus) (UniProt Q8R2Y0), entry CC(C)(C)OC(=O)NCCCCCN(CCc1ccccc1)C(=O)n1cc(-c2ccc(OC(F)(F)F)cc2)nn1 , equals 95

Entry O=C(N1CCCCC1Cc1ccccc1)n1cc(-c2ccc(-c3ccc(C(F)(F)F)cc3)cc2)nn1 (centres undefined) , Monoacylglycerol lipase ABHD6 (Mus musculus) (UniProt Q8R2Y0) data, inhibition value: 90

Summary: O=C(N1CCCCC1Cc1ccccc1)n1cc(-c2cc(F)cc(F)c2)nn1 (centres undefined) , Monoacylglycerol lipase ABHD6 (Mus musculus) (UniProt Q8R2Y0), inhibition = 90

Reported Monoacylglycerol lipase ABHD6 (Mus musculus) (UniProt Q8R2Y0) inhibition for item O=C(N1CCCCC1Cc1ccccc1)n1cc(-c2ccc(-c3ccoc3)cc2)nn1 (centres undefined) was 98

Summary: O=C(N1CCCCC1Cc1ccccc1)n1cc(-c2ccc(-c3ccc(OC(F)(F)F)cc3)cc2)nn1 (centres undefined) , Monoacylglycerol lipase ABHD6 (Mus musculus) (UniProt Q8R2Y0), inhibition = 90

Entry O=C(N1CCCCC1Cc1ccccc1)n1cc(-c2ccc(-c3ccccc3)cc2)nn1 (centres undefined) , tested on Monoacylglycerol lipase ABHD6 (Mus musculus) (UniProt Q8R2Y0), has a reported inhibition of 95

O=C(c1ccc(-c2ccc(-c3cn(C(=O)N4CCCCC4Cc4ccccc4)nn3)cc2)cc1)N1CCCCC1 (centres undefined) tested on Monoacylglycerol lipase ABHD6 (Mus musculus) (UniProt Q8R2Y0) gave inhibition: 85

meta.source: PubChem BioAssay AID602311
